# Assay Explanation: PAMPA permeability assay
# Type: in vitro ADME
# Test Conditions: pH 7, PAMPA
Counter-ions that a name gives are not always drawn.
I'd appreciate it if you could supply recovery at 5 hr, 10 μM values for the items below.

Query block: Returns the measured recovery at 5 hr, 10 μM for the input molecule. Input: COC(=O)c1cc2c(cc1C)/C(=C(/Nc1ccc(S(=O)(=O)N3CCN(CCO)CC3)cc1)c1ccccc1)C(=O)N2 [Example 26, formate]
Result block: 96.2%

Query block: Can you share its recovery at 5 hr, 10 μM? I mean this molecule: COC(=O)c1cc2c(cc1C)/C(=C(/Nc1ccc(C(=O)NCCCN3CCN(C)CC3)cc1)c1ccccc1)C(=O)N2 [Example 21, formate]
Result block: 76%

Query block: Param item = `COC(=O)c1cc2c(cc1C)/C(=C(/Nc1ccc(C(=O)NCC3(N(C)C)CCC3)cc1)c1ccccc1)C(=O)N2` ; retrieve measured recovery at 5 hr, 10 μM.
Result block: 56%

----------
# Assay Explanation: Pharmacokinetic measurements in rats (i.v., i.t., oral)
# Assay type: in vivo
# Test Conditions: male, CD, rat, lung, iv; read-out: lung concentration (nM) at time 0.1 h
Where a name gives a salt, the structure may show the parent alone.
Give concentration at 0.1 h for every item shown.
# output: bare number, implied unit nM

Query block: For the compound COC(=O)c1cc2c(cc1C)/C(=C(/Nc1ccc(C(=O)NCCN3CCNC(=O)C3)cc1)c1ccccc1)C(=O)N2 [Example 9] , what concentration at 0.1 h is on record?
Result block: 494

Query block: Given the entry COC(=O)c1cc2c(cc1C)/C(=C(/Nc1ccc(C(=O)NC3CCN(C)CC3)cc1)c1ccccc1)C(=O)N2 [Example 18, formate] , report its measured concentration at 0.1 h.
Result block: 638

Query block: Item COC(=O)c1ccc2c(c1)NC(=O)/C2=C(\Nc1ccc(N(C)C(=O)CN2CCN(C)CC2)cc1)c1ccccc1 [Nintedanib, reference compound] has what recorded concentration at 0.1 h?
Result block: 2300

Query block: What value of concentration at 0.1 h has been recorded for this entry: COC(=O)c1cc2c(cc1C)/C(=C(/Nc1ccc(C(=O)NCC3CCN(C)CC3)cc1)c1ccccc1)C(=O)N2 [Example 3, formate]
Result block: 761

Query block: Query: concentration at 0.1 h; subject: COC(=O)c1cc2c(cc1C)/C(=C(/Nc1ccc(C(=O)NCCN3CCN(C)CC3)cc1)c1ccccc1)C(=O)N2 [Example 4]
Result block: 959

----------
Kindly state concentration at 6 h for each of the entries shown.
# Assay Explanation: Pharmacokinetic measurements in rats (i.v., i.t., oral)
# Type: in vivo
# Test Conditions: male, CD, rat, lung, other: intra-tracheal; read-out: lung concentration (nM) at time 6 h
Where a name gives a salt, the structure may show the parent alone.
Return type: number; implicit unit nM.

Query block: Look up concentration at 6 h for this molecule: COC(=O)c1cc2c(cc1C)/C(=C(/Nc1ccc(C(=O)NC3CCN(C)CC3)cc1)c1ccccc1)C(=O)N2 [Example 18, formate]
Result block: 2350

Query block: Endpoint output: concentration at 6 h of `COC(=O)c1cc2c(cc1C)/C(=C(/Nc1ccc(C(=O)NCCN3CCNC(=O)C3)cc1)c1ccccc1)C(=O)N2` . Value?
Result block: 10500

Query block: Record request: concentration at 6 h value, item `COC(=O)c1cc2c(cc1C)/C(=C(/Nc1ccc(C(=O)NCCN3CCN(C)CC3)cc1)c1ccccc1)C(=O)N2`
Result block: 475

Query block: Sample COC(=O)c1cc2c(cc1C)/C(=C(/Nc1ccc(C(=O)NCC3CCN(C)CC3)cc1)c1ccccc1)C(=O)N2 [Example 3, formate] — what was its concentration at 6 h?
Result block: 4680
